- measurement_target: TCTP (Homo sapiens, UniProt P13693)
- Sequence (P13693 whole entry): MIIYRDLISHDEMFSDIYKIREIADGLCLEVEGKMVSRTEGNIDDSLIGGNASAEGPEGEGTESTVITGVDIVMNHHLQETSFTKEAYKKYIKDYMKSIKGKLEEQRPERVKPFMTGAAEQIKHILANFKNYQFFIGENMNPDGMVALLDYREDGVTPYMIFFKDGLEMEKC
- experiment: Interaction with TCTP by surface plasmon resonance (SPR), Biacore T200
- Type: binding
measured_parameter: affinity for TCTP (in words)

Solved cases (5 shown):
INSERT INTO assay_data (compound, observed_measurement) VALUES
  ('CC(=O)N[C@@H]1CC[C@H](c2ccc(C(=O)OC(C)C)cc2)c2ccccc21 (relative stereo) [AC056]', 'excellent affinity'),
  ('CC(C)OC(=O)c1ccc(C2CCCc3ccccc32)cc1 (centres unmarked) [AC034]', 'excellent affinity'),
  ('c1ccc2c(c1)SCCC2c1ccc2ccccc2c1 (centres unmarked) [AC085, 4-(naphthalen-2-yl)thiochroman]', 'excellent affinity'),
  ('c1ccc2c(c1)OCCC2c1ccc2ccccc2c1 (centres unmarked) [AC069, 4-(naphthalen-2-yl)chroman]', 'excellent affinity'),
  ('CC(=O)NC1CCC(c2cccc(I)c2)c2ccccc21 (mixture of isomers) [AC087]', 'excellent affinity');

## Input Param item = c1ccc2c(c1)CCCC2c1ccc2ccccc2c1 (centres unmarked) [AC014, 1,2,3,4-tetrahydro-1,2′-binaphthalene] ; retrieve measured affinity for TCTP (in words).
## Output excellent affinity

## Input Try this compound too: Ic1cccc(C2CCCc3ccccc32)c1 (centres unmarked) [AC041]
## Output excellent affinity

## Input Try this compound too: Clc1ccc(C2CCCc3ccccc32)cc1Cl (centres unmarked) [AC096]
## Output excellent affinity
